- Test system: UO-31 renal
- Test Name: NCI tumour cell line growth inhibition, 48 h
Property Measured: TGI

# annotated cases, reported TGI shown
>>> meas_value("CC(C)(C)c1ccc2c(c1)C(=O)c1ccccc1C2=O")
"> 100 µM"
>>> meas_value("O=C1[C@H]2ON(c3ccccc3)C(c3ccc(Cl)cc3Cl)[C@H]2C(=O)N1c1ccc(Cc2ccc(N3C(=O)[C@@H]4ON(c5ccccc5)C(c5ccc(Cl)cc5Cl)[C@@H]4C3=O)cc2)cc1 (stereo partly specified)")
"> 100 µM"

Req: TGI lookup needed for `CC(=O)Nc1ccc(NNc2cc(=O)n(C)c(=O)[nH]2)cc1` , thanks.
Resp: 31 µM

Req: What measured TGI goes with CC(=O)NC1=C(C)C(=O)c2c(nc3n2CCC3OC(=O)c2ccccc2)C1=O (stereo unspecified) ?
Resp: 6.3 µM

Req: Consider the molecule `Cn1c(/C=C/CO)c(CO)c2c1C(=O)C=C(N1CC1)C2=O` and give its measured TGI.
Resp: < 0.01 µM

Req: What value of measured TGI is listed for `CC1(C)C(=NN=C(N)N)C(C)(C)C1=NN=C(N)N` ?
Resp: > 100 µM

Every entry's value here was drawn from PubChem BioAssay (NCI).
